Kindly state remaining activity at 100 µM for each of the entries shown.
# TESTED TARGET: BTK (Homo sapiens, UniProt Q06187)
# Sequence (Q06187 whole entry, species assumed): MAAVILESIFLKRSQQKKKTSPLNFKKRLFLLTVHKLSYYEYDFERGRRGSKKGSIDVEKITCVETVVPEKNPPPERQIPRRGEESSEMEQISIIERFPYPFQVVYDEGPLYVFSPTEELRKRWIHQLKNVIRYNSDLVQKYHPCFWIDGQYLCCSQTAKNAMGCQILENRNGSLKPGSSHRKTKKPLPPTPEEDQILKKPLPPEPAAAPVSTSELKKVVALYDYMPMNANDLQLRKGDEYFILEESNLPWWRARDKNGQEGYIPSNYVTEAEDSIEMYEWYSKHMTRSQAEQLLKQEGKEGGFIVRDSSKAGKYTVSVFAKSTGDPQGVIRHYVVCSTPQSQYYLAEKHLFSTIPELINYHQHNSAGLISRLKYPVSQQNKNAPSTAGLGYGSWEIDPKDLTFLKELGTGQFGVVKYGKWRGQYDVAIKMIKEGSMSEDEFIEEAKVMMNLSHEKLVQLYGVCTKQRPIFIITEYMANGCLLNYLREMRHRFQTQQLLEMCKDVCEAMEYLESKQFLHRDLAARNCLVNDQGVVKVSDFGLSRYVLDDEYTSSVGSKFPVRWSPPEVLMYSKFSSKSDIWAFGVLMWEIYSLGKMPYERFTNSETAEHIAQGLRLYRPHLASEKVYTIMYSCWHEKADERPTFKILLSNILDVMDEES
# EXPERIMENTAL PROTOCOL: Kinase profiling BTK
# Type: biochemical
# CONDITION INFO: 100 micromolar inhibitor concentration; 100 is no change; read-out: residual kinase activity, BTK
Answers are plain numbers, in %.

Guide cases for remaining activity at 100 µM, answers given:
SMILES STR: CC(=O)Nc1nc2ccc(C#N)cc2s1
PROPERTY MEASURED: remaining activity at 100 µM
U: %
QUANTITATIVE READOUT: 98

SMILES STR: CC(=O)Nc1nc2ccc(C(F)(F)F)cc2s1
PROPERTY MEASURED: remaining activity at 100 µM
U: %
QUANTITATIVE READOUT: 73

SMILES STR: COc1ccc2sc(NC(C)=O)nc2c1
PROPERTY MEASURED: remaining activity at 100 µM
U: %
QUANTITATIVE READOUT: 102

SMILES STR: CC(=O)Nc1nc2cc(F)ccc2s1
PROPERTY MEASURED: remaining activity at 100 µM
U: %
QUANTITATIVE READOUT: 105

SMILES STR: CC(=O)Nc1nc2ccc(O)cc2s1
PROPERTY MEASURED: remaining activity at 100 µM
U: %
QUANTITATIVE READOUT: 69

Batch lookup, remaining activity at 100 µM per entry.
1. CC(=O)Nc1nc2ccc([N+](=O)[O-])cc2s1
2. CC(=O)Nc1nc2cc(C(F)(F)F)ccc2s1

Result:
1. 96
2. 93

Measured values drawn from patent US10231954B2 for this set.
